System: HCT-15 colon
Test: NCI-60 one-dose screen, 48 h
Conditions: 10 µM
Compounds without any hit were thinned out: in the full panel of roughly 83,000, 20% have a hit. The source made the active and inactive calls. The calls were made as follows: active = growth percent below 10; inactive = the rest.
Hello, when you answer, please use one of the following outcomes: active, inactive

Answer briefly: the call reported for CCNCCCn1c2c(c3cc(OC)c(OC)cc3c1=O)C(=O)c1cc3c(nc1-2)OCO3 in this assay.
active

Tell me the recorded outcome of this test for COc1ccc(CN2[C@H](C(=O)NCc3ccc(C(=O)NO)cc3)Cc3c([nH]c4ccccc34)[C@H]2C2CC2)cc1 .
inactive

Dear colleague, could you share the recorded outcome for O=C(NO)c1ccc(CN2CCN(c3nc(-c4ccccc4)c4ccccc4n3)CC2)cc1 when you have a moment?
inactive

// return assay outcome for Cc1ccc(-c2nc(Nc3ccc(S(N)(=O)=O)cc3)c3ccccc3n2)cc1
active

Please state the recorded outcome for this compound: Cc1ccc(NCC(=O)Nn2c(COc3ccccc3)nc3ccccc3c2=O)cc1
inactive

What is the recorded call for this compound in the test? O=C(CS(=O)(=O)c1oc(-c2ccc(Cl)cc2)nc1S(=O)(=O)c1ccccc1)N1CCCC1
active

Entry N#Cc1ccc(-c2nn(-c3ccc(C(=O)O)cc3)cc2CNc2ccc(Oc3ccccc3)cc2)cc1 : call = ?
inactive

Could you kindly confirm the outcome this assay logged for Cc1ccc(-c2nc3ccc(C(=O)N=Nc4c(O)[nH]c5ccc([N+](=O)[O-])cc45)cc3[nH]2)cc1 ?
inactive

Hi team, can someone confirm the assay call for Cc1ccc(-c2nc3ccc(C(=O)N=Nc4c(O)[nH]c5ccc(Cl)cc45)cc3[nH]2)cc1 ?
inactive

# outcome recorded in this test, key = Cc1ccc(-c2cc(-c3cc4ccccc4nc3Cl)[nH]c(=S)n2)cc1
inactive

Hello, I am checking results. What call was entered for Cc1ccc(-c2ccc(SCC(=O)Nc3ccc(Cl)c(C(F)(F)F)c3)nn2)cc1 ?
inactive

Status in this test for C=C1CCC2C3(C)COC(c4ccccc4F)OC3CCC2(C)C1C/C=C1/C(=O)OCC1O (stereo not drawn) ?
active

Called result for COc1ccc(/C(CSc2nnc(-c3c[nH]c4ccccc34)n2-c2ccccc2)=N/O)cc1
inactive

# lookup: test call for Cc1cc(=O)oc2cc(OCCCCOc3ccc(/C=C/C(=O)Nc4ccccc4[N+](=O)[O-])cc3)ccc12
inactive

Which outcome was assigned to Nc1nnc(-c2c[nH]c3ccc(F)cc23)c(-c2c[nH]c3ncccc23)n1 in this test?
inactive

Could you please tell me the result logged for O=C(CSc1nnc(-c2c[nH]c3ccccc23)n1-c1ccccc1)Nc1ccc(C(=O)/C=C/c2cccc([N+](=O)[O-])c2)cc1 in this assay?
inactive

Could you check what this test reported for CC(=O)Nc1ccc(-c2cn(-c3cccc(C(=O)Nc4ccc(F)c(C(F)(F)F)c4)c3)nn2)cn1 ?
inactive

Check the results log: what was the call for Cc1cc(C)nc(SCC(=O)Nc2ccc(S(N)(=O)=O)cc2)n1 ?
inactive
